- TESTED_TARGET: Nuclear receptor subfamily 1 group I member 2 (Homo sapiens) (UniProt O75469)
- Sequence (O75469 whole entry, looked up): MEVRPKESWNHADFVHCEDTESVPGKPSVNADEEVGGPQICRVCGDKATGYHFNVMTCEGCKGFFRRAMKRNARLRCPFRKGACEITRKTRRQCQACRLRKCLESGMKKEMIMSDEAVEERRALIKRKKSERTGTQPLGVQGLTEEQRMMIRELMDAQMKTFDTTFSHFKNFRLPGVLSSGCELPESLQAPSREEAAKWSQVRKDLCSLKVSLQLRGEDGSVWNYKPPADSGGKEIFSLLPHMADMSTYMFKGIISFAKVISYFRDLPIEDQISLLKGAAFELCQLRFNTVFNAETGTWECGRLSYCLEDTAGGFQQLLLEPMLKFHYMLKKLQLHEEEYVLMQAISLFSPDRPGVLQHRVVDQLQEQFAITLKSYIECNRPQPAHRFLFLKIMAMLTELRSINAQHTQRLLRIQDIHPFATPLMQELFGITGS
- METHOD_DESCRIPTION: ATG_PXR_TRANS: Attagene TRANS-FACTORIAL HepG2 Assay for human Pregnane X Receptor (PXR) (AID 2283008)
Results filed as inconclusive are left out. The source made the active and inactive calls. How the source made its calls: active means hit-call score of the fitted dose curve at least 0.9, where 1 is the maximum; inconclusive means response in the unintended direction; inactive means score below 0.9.
Valid outcomes are listed here; reply with one: T for active, F for inactive

Below, 8 compounds whose answers are already recorded.
[[record]]
compound = "CC/C=C/CCO"
tested_target = "Nuclear receptor subfamily 1 group I member 2 (Homo sapiens) (UniProt O75469)"
cat = "F"

[[record]]
compound = "CCCCCCCC#N"
tested_target = "Nuclear receptor subfamily 1 group I member 2 (Homo sapiens) (UniProt O75469)"
cat = "F"

[[record]]
compound = "CC(C)(Oc1ccc(Cl)cc1)C(=O)O"
tested_target = "Nuclear receptor subfamily 1 group I member 2 (Homo sapiens) (UniProt O75469)"
cat = "F"

[[record]]
compound = "CC=CC(=O)O"
tested_target = "Nuclear receptor subfamily 1 group I member 2 (Homo sapiens) (UniProt O75469)"
cat = "F"

[[record]]
compound = "F[B-](F)(F)F"
tested_target = "Nuclear receptor subfamily 1 group I member 2 (Homo sapiens) (UniProt O75469)"
cat = "F"

[[record]]
compound = "COc1c2occc2cc2ccc(=O)oc12"
tested_target = "Nuclear receptor subfamily 1 group I member 2 (Homo sapiens) (UniProt O75469)"
cat = "T"

[[record]]
compound = "CN(C)N=Nc1ccccc1"
tested_target = "Nuclear receptor subfamily 1 group I member 2 (Homo sapiens) (UniProt O75469)"
cat = "F"

[[record]]
compound = "CCC(C)(CCC(C)C)C(=O)O (stereo unspecified)"
tested_target = "Nuclear receptor subfamily 1 group I member 2 (Homo sapiens) (UniProt O75469)"
cat = "F"


Incoming: Identify the outcome logged in this assay for the compound shown: O=[N+]([O-])c1ccccc1C(F)(F)F
Outgoing: F

Incoming: // return assay outcome for CCCCCCCCCCCCCC
Outgoing: F

Incoming: Entry O=C(OCc1ccccc1)c1ccccc1 : call = ?
Outgoing: F

###

- METHOD_DESCRIPTION: TOX21_p53_BLA_p5_viability: Viability Assessment in the Tox21 HCT-116 p53 Agonism Beta-lactamase Assay, Phase 5 (AID 2283600)
Inconclusive results are not listed. Active and inactive are the calls of the source. Rule for the calls: active = hit-call score of the fitted dose curve at least 0.9, where 1 is the maximum; inconclusive = response in the unintended direction; inactive = score below 0.9.
Hello, when you answer, please use one of the following outcomes: active, inactive

[[record]]
compound = "Cc1cn([C@H]2C[C@H](O)[C@@H](CO)O2)c(=O)[nH]c1=O"
cat = "inactive"


Incoming: Called result for C=CCN1C(=O)C(CC(C)C)NC1=S (configuration not stated)
Outgoing: inactive

Incoming: Tell me the assay call for C=C1CC[C@H](O)C/C1=C/C=C1\CCC[C@]2(C)[C@@H]([C@H](C)CCCC(C)(C)O)CC[C@@H]12 please.
Outgoing: active

Incoming: Write down the call the test reported for this compound. Item: O=S(c1cc(Cl)cc(Cl)c1O)c1cc(Cl)cc(Cl)c1O
Outgoing: inactive

###

- METHOD_DESCRIPTION: CCTE_Mundy_HCI_hNP1_CellTiter: CCTE's Cell Titer-Glo 2 Assay in human neuroprogenitor cells for Viability, Mundy Lab (AID 2284241);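 on AC50: a hit is a drop in ATP luminescence versus DMSO meaning reduced viability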
Inconclusive results are not listed. Activity calls are given as the source filed them. How the source made its calls: active means hit-call score of the fitted dose curve at least 0.9, where 1 is the maximum; inconclusive means response in the unintended direction; inactive means score below 0.9.
OUTCOME_MEASURE: AC50

[[record]]
molecule = "C[C@H](CS)C(=O)N1CCC[C@H]1C(=O)O"
outcome_measure = "AC50"
value_observed = "inactive"

[[record]]
molecule = "CN(C)CCC(c1ccc(Cl)cc1)c1ccccn1 (centres undefined)"
outcome_measure = "AC50"
value_observed = "inactive"

[[record]]
molecule = "NC(N)=Nc1nc(CSCCC(N)=NS(N)(=O)=O)cs1"
outcome_measure = "AC50"
value_observed = "inactive"

[[record]]
molecule = "Cc1c(O)cccc1C(=O)N[C@@H](CSc1ccccc1)[C@H](O)CN1C[C@H]2CCCC[C@H]2C[C@H]1C(=O)NC(C)(C)C"
outcome_measure = "AC50"
value_observed = "11.1 µM (active)"


Hello, the source for this data is PubChem BioAssay (EPA / NIEHS), in case you need it.
